Record form. Attribute: MIC. Fill in for each entry.
# Tested on: STREPTOCOCCUS BOVIS A-5169
# assay: In vitro antibacterial activity, MIC, BHI agar dilution
# Format: cell-based
# condition-context: S. bovis A-5169, unit assumed
Answer format: numeric, µg/mL implied, no suffix.

For record CC[C@H]1OC(=O)[C@H](C)C(=O)[C@H](C)[C@@H](O[C@@H]2O[C@H](C)C[C@H](N(C)C)[C@H]2O)[C@](C)(OC)C[C@@H](C)C2=NC3CN(S(=O)(=O)Cc4ccccc4[N+](=O)[O-])CC3N3C(=O)O[C@@]1(C)[C@H]3[C@H]2C (stereo partly shown) [Example 123] the listed MIC is 0.1

Short answer for CC[C@H]1OC(=O)[C@H](C)C(=O)[C@H](C)[C@@H](O[C@@H]2O[C@H](C)C[C@H](N(C)C)[C@H]2O)[C@](C)(OC)C[C@@H](C)C2=N[C@@H]3CNC[C@@H]3N3C(=O)O[C@@]1(C)[C@H]3[C@H]2C [Example 19] : MIC was 0.005

Entry CC[C@H]1OC(=O)[C@H](C)C(=O)[C@H](C)[C@@H](O[C@@H]2O[C@H](C)C[C@H](N(C)C)[C@H]2O)[C@](C)(OC)C[C@@H](C)C2=NC[C@H](Cc3ccc(I)cc3)N3C(=O)O[C@@]1(C)[C@H]3[C@H]2C [Example 70] , MIC reported as 0.01

###

Consider the following compounds; for each one, report its MIC.
# Test system: ESCHERICHIA COLI H560
# assay: In vitro antibacterial activity, MIC, BHI agar dilution
# Type: cell-based
# condition-context: E. coli H560, unit assumed
// return numeric value only (unit: µg/mL, not printed)

Given item CC[C@H]1OC(=O)[C@H](C)C(=O)[C@H](C)[C@@H](O[C@@H]2O[C@H](C)C[C@H](N(C)C)[C@H]2O)[C@](C)(OC)C[C@@H](C)C2=NC[C@H](C)N3C(=O)O[C@@]1(C)[C@H]3[C@H]2C , the value recorded as its MIC is 25

Per the record, CC[C@H]1OC(=O)[C@H](C)C(=O)[C@H](C)[C@@H](O[C@@H]2O[C@H](C)C[C@H](N(C)C)[C@H]2O)[C@](C)(OC)C[C@@H](C)C2=NC[C@H](CO)N3C(=O)O[C@@]1(C)[C@H]3[C@H]2C has MIC of 50

Lab book: MIC of CC[C@H]1OC(=O)[C@H](C)C(=O)[C@H](C)[C@@H](O[C@@H]2O[C@H](C)C[C@H](N(C)C)[C@H]2O)[C@](C)(OC)C[C@@H](C)C2=NC3CNCC3N3C(=O)O[C@@]1(C)[C@H]3[C@H]2C (some centres unmarked) noted as 6.2

Form field MIC, entry CC[C@H]1OC(=O)[C@H](C)C(=O)[C@H](C)[C@@H](O[C@@H]2O[C@H](C)C[C@H](N(C)C)[C@H]2O)[C@](C)(OC)C[C@@H](C)C2=NC3CN(CCCc4ccccc4)CC3N3C(=O)O[C@@]1(C)[C@H]3[C@H]2C (some centres unmarked) [Example 111] : 50

Given item CC[C@H]1OC(=O)[C@H](C)C(=O)[C@H](C)[C@@H](O[C@@H]2O[C@H](C)C[C@H](N(C)C)[C@H]2O)[C@](C)(OC)C[C@@H](C)C2=NC3CCCCC3N3C(=O)O[C@@]1(C)[C@H]3[C@H]2C (some centres unmarked) , the value recorded as its MIC is 12.5

Notebook: CC[C@H]1OC(=O)[C@H](C)C(=O)[C@H](C)[C@@H](O[C@@H]2O[C@H](C)C[C@H](N(C)C)[C@H]2O)[C@](C)(OC)C[C@@H](C)C2=NC3CN(CCCc4ccccc4)CC3N3C(=O)O[C@@]1(C)[C@H]3[C@H]2C (some centres unmarked) [Example 112] , MIC read as 50

The reported value for CC[C@H]1OC(=O)[C@H](C)C(=O)[C@H](C)[C@@H](O[C@@H]2O[C@H](C)C[C@H](N(C)C)[C@H]2O)[C@](C)(OC)C[C@@H](C)C2=N[C@@H]3CN(Cc4ccccc4)C[C@@H]3N3C(=O)O[C@@]1(C)[C@H]3[C@H]2C in terms of MIC is 50

For this compound ( CC[C@H]1OC(=O)[C@H](C)C(=O)[C@H](C)[C@@H](O[C@@H]2O[C@H](C)C[C@H](N(C)C)[C@H]2O)[C@](C)(OC)C[C@@H](C)C2=NC[C@H](Cc3ccc(O)cc3)N3C(=O)O[C@@]1(C)[C@H]3[C@H]2C ), measured MIC is 50

These measurements were taken from patent US6274715A.
